// data source = PubChem BioAssay

- experiment.notes: chitosan synthesis blockers in C. neoformans – flow cytometry, Cibacron Brilliant Red staining (AID 1347148);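 note: compound exposure lasted three days at 37 degrees C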
- measurement.parameters: Cryptococcus neoformans chitosan, stronger effect = lower value; at 10 µM unless noted
Active and inactive are the calls of the source. The rule behind the calls is not given here.
Below, each entry is listed alongside its reported fold fluorescence.
property.measured: fold fluorescence

1. COc1ccc(CCCO[C@@H](Cn2ccnc2)c2ccc(OC)cc2)cc1    7.02 [at 136.4 µM] (inactive)
2. COC(C)(C)CCC[C@H](C)C/C=C/C(C)=C/C(=O)O    5.1 (inactive)
3. CCCCC[C@H](O)/C=C/C=C\CCCCCCCC(=O)O    6.42 [at 1 µM] (inactive)
4. CCCCC/C=C\CC1OC1C/C=C\C/C=C\CCCC(=O)O (stereo not given)    6.17 [at 1 µM] (inactive)
5. CCCC[C@@H](C)/C=C(C)/C=C(\C)C(=O)NC1=C[C@@](O)(/C=C/C=C/C=C/C(=O)NC2=C(O)CCC2=O)[C@@H]2O[C@@H]2C1=O    7.73 [at 90.8 µM] (inactive)
